- Test system: KP-2 (Pancreatic Carcinoma);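 further: after 72 h of two-drug dosing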
- ASSAY PROCEDURE: Bliss excess, mean over the matrix (fraction); higher = more synergy
OUTCOME MEASURE: Bliss excess

[[record]]
compound = "CC(=O)c1c(C)c2cnc(Nc3ccc(N4CCNCC4)cn3)nc2n(C2CCCC2)c1=O [Palbociclib] + Cn1cnc2c(F)c(Nc3ccc(Br)cc3Cl)c(C(=O)NOCCO)cc21 [Selumetinib] (first compound max 10 µM, 7x7, partner max 10 µM)"
experimental_system = "KP-2 (Pancreatic Carcinoma)"
quantitative_readout = -0.0153

[[record]]
compound = "C[C@@H](c1ccc2nccn2c1)n1nnc2ncc(-c3cnn(C)c3)nc21 [Savolitinib] + Cc1c2c(nn1C)CSCc1cc(n(C)n1)CSc1cc(c3ccccc3c1)OCCCc1c(C(=O)O)n(C)c3c-2c(Cl)ccc13 [AZD5991] (first compound max 1 µM, 7x7, partner max 1 µM)"
experimental_system = "KP-2 (Pancreatic Carcinoma)"
quantitative_readout = -0.0468

[[record]]
compound = "CN(CCO)CC[C@H](CSc1ccccc1)Nc1ccc(S(=O)(=O)NC(=O)c2ccc(N3CCC([C@@H](O)c4ccccc4-c4ccc(Cl)cc4)CC3)cc2)cc1S(=O)(=O)C(F)(F)F [AZD4320] + C[C@@H](Nc1cc(F)cc(F)c1)c1cc(C(=O)N(C)C)cc2c(=O)cc(N3CCOCC3)oc12 [AZD8186] (first compound max 1 µM, 7x7, partner max 3 µM)"
experimental_system = "KP-2 (Pancreatic Carcinoma)"
quantitative_readout = 0.0419

[[record]]
compound = "COc1cccc(OCCCN)c1-c1cc(Nc2cnc(C#N)cn2)n[nH]1 [Prexasertib] + Cc1cc2ncnn2cc1Nc1ncc2c(n1)n(C1CCOCC1)c(=O)n2C [AZD7648] (first compound max 1 µM, 7x7, partner max 10 µM)"
experimental_system = "KP-2 (Pancreatic Carcinoma)"
quantitative_readout = 0.0258


====

- System: KU-19-19 (Bladder Carcinoma)
- ASSAY PROCEDURE: combination Emax (second highest fraction inhibited in the dose matrix, 72 h); higher = more inhibition; extreme values may be limits of the assay
OUTCOME MEASURE: combination Emax

[[record]]
molecule = "CC(=O)c1c(C)c2cnc(Nc3ccc(N4CCNCC4)cn3)nc2n(C2CCCC2)c1=O [Palbociclib] + Cc1c2c(nn1C)CSCc1cc(n(C)n1)CSc1cc(c3ccccc3c1)OCCCc1c(C(=O)O)n(C)c3c-2c(Cl)ccc13 [AZD5991] (first compound max 10 µM, 7x7, partner max 1 µM)"
result = 0.435

[[record]]
molecule = "COc1nnc2ccc(N3CCC(c4ccc(OCCN5CCN(C)C(=O)[C@H]5C)cc4)CC3)nn12 [AZD5153] + C=CCn1c(=O)c2cnc(Nc3ccc(N4CCN(C)CC4)cc3)nc2n1-c1cccc(C(C)(C)O)n1 [AZD1775] (first compound max 1 µM, partner max 1 µM)"
result = 0.731

[[record]]
molecule = "CCN(CCO)CCCOc1ccc2c(Nc3cc(CC(=O)Nc4cccc(F)c4)[nH]n3)ncnc2c1 [AZD2811] + O=C(c1cc(Cc2n[nH]c(=O)c3ccccc23)ccc1F)N1CCN(C(=O)C2CC2)CC1 [Olaparib] (first compound max 1 µM, 7x7, partner max 10 µM)"
result = 0.381

[[record]]
molecule = "COc1cccc(OCCCN)c1-c1cc(Nc2cnc(C#N)cn2)n[nH]1 [Prexasertib] + O=C(c1cc(Cc2n[nH]c(=O)c3ccccc23)ccc1F)N1CCN(C(=O)C2CC2)CC1 [Olaparib] (first compound max 1 µM, 7x7, partner max 10 µM)"
result = 0.886

[[record]]
molecule = "COc1cccc(OCCCN)c1-c1cc(Nc2cnc(C#N)cn2)n[nH]1 [Prexasertib] + CCc1c2c(nc3ccc(O)cc13)-c1cc3c(c(=O)n1C2)COC(=O)[C@]3(O)CC [SN-38] (first compound max 1 µM, 7x7, partner max 0.3 µM)"
result = 0.959

[[record]]
molecule = "COc1cccc2c1C(=O)c1c(O)c3c(c(O)c1C2=O)C[C@@](O)(C(=O)CO)C[C@@H]3O[C@H]1C[C@H](N)[C@H](O)[C@H](C)O1 [Doxorubicin] + Cc1cc2ncnn2cc1Nc1ncc2c(n1)n(C1CCOCC1)c(=O)n2C [AZD7648] (first compound max 1 µM, 7x7, partner max 10 µM)"
result = 0.814

[[record]]
molecule = "C[C@@H](c1ccc2nccn2c1)n1nnc2ncc(-c3cnn(C)c3)nc21 [Savolitinib] + CC1(C)CCC(CN2CCN(c3ccc(C(=O)NS(=O)(=O)c4ccc(NCC5CCOCC5)c([N+](=O)[O-])c4)c(Oc4cnc5[nH]ccc5c4)c3)CC2)=C(c2ccc(Cl)cc2)C1 [Venetoclax] (first compound max 1 µM, 7x7, partner max 1 µM)"
result = 0.132


====

The following compounds are shown together with reported combination Emax values.
- Test system: HSC-2 (Oral Cavity Carcinoma)
- ASSAY PROCEDURE: combination Emax (second highest fraction inhibited in the dose matrix, 72 h); higher = more inhibition; extreme values may be limits of the assay
OUTCOME MEASURE: combination Emax

[[record]]
compound = "Cc1c2c(nn1C)CSCc1cc(n(C)n1)CSc1cc(c3ccccc3c1)OCCCc1c(C(=O)O)n(C)c3c-2c(Cl)ccc13 [AZD5991] + C[C@@H]1COCCN1C2=NC(=NC(=C2)C3(CC3)[S@](=N)(=O)C)C4=C5C=CNC5=NC=C4 [AZD6738] (first compound max 1 µM, 7x7, partner max 10 µM)"
experimental_system = "HSC-2 (Oral Cavity Carcinoma)"
quantitative_readout = 0.765

[[record]]
compound = "COc1cccc(OCCCN)c1-c1cc(Nc2cnc(C#N)cn2)n[nH]1 [Prexasertib] + CCc1c2c(nc3ccc(O)cc13)-c1cc3c(c(=O)n1C2)COC(=O)[C@]3(O)CC [SN-38] (first compound max 1 µM, 7x7, partner max 0.3 µM)"
experimental_system = "HSC-2 (Oral Cavity Carcinoma)"
quantitative_readout = 0.95

[[record]]
compound = "CCN(CCO)CCCOc1ccc2c(Nc3cc(CC(=O)Nc4cccc(F)c4)[nH]n3)ncnc2c1 [AZD2811] + C[C@@H]1COCCN1C2=NC(=NC(=C2)C3(CC3)[S@](=N)(=O)C)C4=C5C=CNC5=NC=C4 [AZD6738] (first compound max 1 µM, 7x7, partner max 10 µM)"
experimental_system = "HSC-2 (Oral Cavity Carcinoma)"
quantitative_readout = 0.68

[[record]]
compound = "C[C@@H]1COCCN1c1cc(C2([S@](C)(=N)=O)CC2)nc(-c2ccnc3[nH]ccc23)n1 [AZD6738] + C1CC(C1)(C(=O)[O-])C(=O)[O-].N.N.[Pt+2] [Carboplatin] (first compound max 10 µM, 7x7, partner max 10 µM)"
experimental_system = "HSC-2 (Oral Cavity Carcinoma)"
quantitative_readout = 0.598


====

- Test system: PFSK-1 (Other Solid Carcinomas)
- ASSAY PROCEDURE: combination Emax (second highest fraction inhibited in the dose matrix, 72 h); higher = more inhibition; extreme values may be limits of the assay
OUTCOME MEASURE: combination Emax

[[record]]
compound = "CN(CCO)CC[C@H](CSc1ccccc1)Nc1ccc(S(=O)(=O)NC(=O)c2ccc(N3CCC([C@@H](O)c4ccccc4-c4ccc(Cl)cc4)CC3)cc2)cc1S(=O)(=O)C(F)(F)F [AZD4320] + C[C@@H](Nc1cc(F)cc(F)c1)c1cc(C(=O)N(C)C)cc2c(=O)cc(N3CCOCC3)oc12 [AZD8186] (first compound max 1 µM, 7x7, partner max 3 µM)"
outcome_measure = "combination Emax"
result = 0.471

[[record]]
compound = "CC(=O)c1c(C)c2cnc(Nc3ccc(N4CCNCC4)cn3)nc2n(C2CCCC2)c1=O [Palbociclib] + CC1(C)CCC(CN2CCN(c3ccc(C(=O)NS(=O)(=O)c4ccc(NCC5CCOCC5)c([N+](=O)[O-])c4)c(Oc4cnc5[nH]ccc5c4)c3)CC2)=C(c2ccc(Cl)cc2)C1 [Venetoclax] (first compound max 10 µM, 7x7, partner max 1 µM)"
outcome_measure = "combination Emax"
result = 0.235

[[record]]
compound = "COc1nnc2ccc(N3CCC(c4ccc(OCCN5CCN(C)C(=O)[C@H]5C)cc4)CC3)nn12 [AZD5153] + C[C@@H]1COCCN1C2=NC(=NC(=C2)C3(CC3)[S@](=N)(=O)C)C4=C5C=CNC5=NC=C4 [AZD6738] (first compound max 1 µM, 7x7, partner max 10 µM)"
outcome_measure = "combination Emax"
result = 0.648

[[record]]
compound = "COc1nnc2ccc(N3CCC(c4ccc(OCCN5CCN(C)C(=O)[C@H]5C)cc4)CC3)nn12 [AZD5153] + C=CCn1c(=O)c2cnc(Nc3ccc(N4CCN(C)CC4)cc3)nc2n1-c1cccc(C(C)(C)O)n1 [AZD1775] (first compound max 1 µM, partner max 1 µM)"
outcome_measure = "combination Emax"
result = 0.744

[[record]]
compound = "Cc1c2c(nn1C)CSCc1cc(n(C)n1)CSc1cc(c3ccccc3c1)OCCCc1c(C(=O)O)n(C)c3c-2c(Cl)ccc13 [AZD5991] + CC1(C)CCC(CN2CCN(c3ccc(C(=O)NS(=O)(=O)c4ccc(NCC5CCOCC5)c([N+](=O)[O-])c4)c(Oc4cnc5[nH]ccc5c4)c3)CC2)=C(c2ccc(Cl)cc2)C1 [Venetoclax] (first compound max 1 µM, 7x7, partner max 1 µM)"
outcome_measure = "combination Emax"
result = 1

[[record]]
compound = "Cn1cnc2c(F)c(Nc3ccc(Br)cc3Cl)c(C(=O)NOCCO)cc21 [Selumetinib] + C[C@@H]1COCCN1C2=NC(=NC(=C2)C3(CC3)[S@](=N)(=O)C)C4=C5C=CNC5=NC=C4 [AZD6738] (first compound max 10 µM, 7x7, partner max 10 µM)"
outcome_measure = "combination Emax"
result = 0.595

